- experimentSummary: Pharmacokinetics in C57BL/6 mice after single IV and PO administration
- Assay type: in vivo
- measurementConditions: C57BL/6, mouse, liver, po, 3 mg/kg, liver/plasma; 3 mg/kg PO single dose; read-out: AUC0–∞ ratio (tissue/plasma)
testReadout: Kp

Identify measured Kp associated with `N=c1c2c(-c3ccccc3)c(-c3ccccc3)n(Cc3ccccc3)c2ncn1[C@H]1CC[C@H](O)CC1`
> 50

====

- experimentSummary: Pharmacokinetics in C57BL/6 mice after single IV and PO administration
- Type: in vivo
- measurementConditions: C57BL/6, mouse; plasma; 10 mg/kg PO single dose
testReadout: Tmax (h)
Quick reminder: number only, in h, skip the unit.

Identify measured Tmax associated with `N=c1c2c(-c3ccccc3)c(-c3ccccc3)n(Cc3ccccc3)c2ncn1[C@H]1CC[C@H](O)CC1`
2

====

- experimentSummary: Pharmacokinetics in tumor-bearing KPC mice after 25 mg/kg single or multiple dose oral gavage
- Type: in vivo
- measurementConditions: KPC, mouse, pancreatic tumor, po, 25 mg/kg, tumor; single PO dose 25 mg/kg; read-out: AUC0–24h
testReadout: AUC(0-t)
Give the number first and the unit second.

Identify measured AUC(0-t) associated with `N=c1c2c(-c3ccccc3)c(-c3ccccc3)n(Cc3ccccc3)c2ncn1[C@H]1CC[C@H](O)CC1`
232 µg·h/mL

====

- experimentSummary: Pharmacokinetics in tumor-bearing KPC mice after 25 mg/kg single or multiple dose oral gavage
- Assay type: in vivo
- measurementConditions: KPC, mouse; liver; day 14, multiple PO doses 25 mg/kg/day
testReadout: half-life
Give the number first and the unit second.

Identify measured half-life associated with N=c1c2c(-c3ccccc3)c(-c3ccccc3)n(Cc3ccccc3)c2ncn1[C@H]1CC[C@H](O)CC1 [metarrestin]
9.6 h

====

- experimentSummary: Pharmacokinetics in tumor-bearing KPC mice after 25 mg/kg single or multiple dose oral gavage
- Format: in vivo
- measurementConditions: KPC, mouse, pancreatic tumor; tumor; day 14, multiple PO doses 25 mg/kg/day
- Protocol: Animals with three or more tumors per organ, pancreatic cysts or cystic tumors, signs of intestinal, pancreatic or gall bladder duct occlusions, or otherwise moribund/showing signs of dilapidation were excluded. […] An ultra-performance liquid chromatography–tandem mass spectrometry (UPLC–MS/MS) method was developed to determine metarrestin concentrations in plasma and tissue samples. […] Data were analyzed using MassLynx V4.1. […]
testReadout: Cmax (µg/mL)
Quick reminder: number only, in µg/mL, skip the unit.

Identify measured Cmax associated with `N=c1c2c(-c3ccccc3)c(-c3ccccc3)n(Cc3ccccc3)c2ncn1[C@H]1CC[C@H](O)CC1`
65

====

- experimentSummary: Pharmacokinetics in tumor-bearing KPC mice after 25 mg/kg single or multiple dose oral gavage
- Assay type: in vivo
- measurementConditions: KPC, mouse, pancreatic tumor; tumor; single PO dose 25 mg/kg
testReadout: Cmax (ng/mL)
Quick reminder: number only, in ng/mL, skip the unit.

Identify measured Cmax associated with `N=c1c2c(-c3ccccc3)c(-c3ccccc3)n(Cc3ccccc3)c2ncn1[C@H]1CC[C@H](O)CC1`
14000

====

- experimentSummary: Pharmacokinetics in tumor-bearing KPC mice after 25 mg/kg single or multiple dose oral gavage
- Format: in vivo
- measurementConditions: KPC, mouse; spleen; day 14, multiple PO doses 25 mg/kg/day
testReadout: AUC(0-inf) (µg·h/mL)
Quick reminder: number only, in µg·h/mL, skip the unit.

Identify measured AUC(0-inf) associated with N=c1c2c(-c3ccccc3)c(-c3ccccc3)n(Cc3ccccc3)c2ncn1[C@H]1CC[C@H](O)CC1 [metarrestin]
1250

====

- experimentSummary: Pharmacokinetics in tumor-bearing KPC mice after 25 mg/kg single or multiple dose oral gavage
- Type: in vivo
- measurementConditions: KPC, mouse; liver; single PO dose 25 mg/kg
testReadout: half-life (h)
Quick reminder: number only, in h, skip the unit.

Identify measured half-life associated with N=c1c2c(-c3ccccc3)c(-c3ccccc3)n(Cc3ccccc3)c2ncn1[C@H]1CC[C@H](O)CC1 [metarrestin]
9

====

- experimentSummary: Steady-state PK in KPC mice fed metarrestin-infused chow
- Type: in vivo
- measurementConditions: KPC, mouse, po; plasma; day 10, chow, target dose 10 mg/kg/day
testReadout: Cmax (ng/mL)
Quick reminder: number only, in ng/mL, skip the unit.

Identify measured Cmax associated with `N=c1c2c(-c3ccccc3)c(-c3ccccc3)n(Cc3ccccc3)c2ncn1[C@H]1CC[C@H](O)CC1`
237

====

- experimentSummary: Pharmacokinetics in tumor-bearing KPC mice after 25 mg/kg single or multiple dose oral gavage
- Format: in vivo
- measurementConditions: KPC, mouse, pancreatic tumor; tumor; day 14, multiple PO doses 25 mg/kg/day
testReadout: AUC(0-inf)
Give the number first and the unit second.

Identify measured AUC(0-inf) associated with `N=c1c2c(-c3ccccc3)c(-c3ccccc3)n(Cc3ccccc3)c2ncn1[C@H]1CC[C@H](O)CC1`
2090 µg·h/mL

====

- experimentSummary: Steady-state PK in KPC mice fed metarrestin-infused chow
- Type: in vivo
- measurementConditions: KPC, mouse, oral; plasma; day 10, chow 70 ppm, target dose 10 mg/kg/day; read-out: AUC0-24hr
testReadout: AUC(0-t) (ng·h/mL)
Quick reminder: number only, in ng·h/mL, skip the unit.

Identify measured AUC(0-t) associated with `N=c1c2c(-c3ccccc3)c(-c3ccccc3)n(Cc3ccccc3)c2ncn1[C@H]1CC[C@H](O)CC1`
4160

====

- experimentSummary: Pharmacokinetics in C57BL/6 mice after single IV and PO administration
- Format: in vivo
- measurementConditions: C57BL/6, mouse; plasma; 3 mg/kg PO single dose
testReadout: Cmax (ng/mL)
Quick reminder: number only, in ng/mL, skip the unit.

Identify measured Cmax associated with N=c1c2c(-c3ccccc3)c(-c3ccccc3)n(Cc3ccccc3)c2ncn1[C@H]1CC[C@H](O)CC1 [metarrestin]
55.7

====

- experimentSummary: Pharmacokinetics in tumor-bearing KPC mice after 25 mg/kg single or multiple dose oral gavage
- Assay type: in vivo
- measurementConditions: KPC, mouse, pancreatic tumor, po, 25 mg/kg/day, tumor; day 14, multiple PO doses 25 mg/kg/day; read-out: AUC0–24h
testReadout: AUC(0-t) (µg·h/mL)
Quick reminder: number only, in µg·h/mL, skip the unit.

Identify measured AUC(0-t) associated with N=c1c2c(-c3ccccc3)c(-c3ccccc3)n(Cc3ccccc3)c2ncn1[C@H]1CC[C@H](O)CC1 [metarrestin]
1150

====

- experimentSummary: Pharmacokinetics in tumor-bearing KPC mice after 25 mg/kg single or multiple dose oral gavage
- Format: in vivo
- measurementConditions: KPC, mouse; plasma; day 14, multiple PO doses 25 mg/kg/day
- Description: Animals with three or more tumors per organ, pancreatic cysts or cystic tumors, signs of intestinal, pancreatic or gall bladder duct occlusions, or otherwise moribund/showing signs of dilapidation were excluded. […] An ultra-performance liquid chromatography–tandem mass spectrometry (UPLC–MS/MS) method was developed to determine metarrestin concentrations in plasma and tissue samples. […] Data were analyzed using MassLynx V4.1. […]
testReadout: AUC(0-inf) (ng·h/mL)
Quick reminder: number only, in ng·h/mL, skip the unit.

Identify measured AUC(0-inf) associated with `N=c1c2c(-c3ccccc3)c(-c3ccccc3)n(Cc3ccccc3)c2ncn1[C@H]1CC[C@H](O)CC1`
39300

====

- experimentSummary: Pharmacokinetics in tumor-bearing KPC mice after 25 mg/kg single or multiple dose oral gavage
- Format: in vivo
- measurementConditions: KPC, mouse, pancreatic tumor; tumor; single PO dose 25 mg/kg
testReadout: Tmax (h)
Quick reminder: number only, in h, skip the unit.

Identify measured Tmax associated with `N=c1c2c(-c3ccccc3)c(-c3ccccc3)n(Cc3ccccc3)c2ncn1[C@H]1CC[C@H](O)CC1`
6

====

- experimentSummary: Pharmacokinetics in tumor-bearing KPC mice after 25 mg/kg single or multiple dose oral gavage
- Type: in vivo
- measurementConditions: KPC, mouse, pancreatic tumor; tumor; day 14, multiple PO doses 25 mg/kg/day
- Experimental: Animals with three or more tumors per organ, pancreatic cysts or cystic tumors, signs of intestinal, pancreatic or gall bladder duct occlusions, or otherwise moribund/showing signs of dilapidation were excluded. […] An ultra-performance liquid chromatography–tandem mass spectrometry (UPLC–MS/MS) method was developed to determine metarrestin concentrations in plasma and tissue samples. […] Data were analyzed using MassLynx V4.1. […]
testReadout: half-life
Give the number first and the unit second.

Identify measured half-life associated with `N=c1c2c(-c3ccccc3)c(-c3ccccc3)n(Cc3ccccc3)c2ncn1[C@H]1CC[C@H](O)CC1`
18 h

====

- experimentSummary: Pharmacokinetics in tumor-bearing KPC mice after 25 mg/kg single or multiple dose oral gavage
- Type: in vivo
- measurementConditions: KPC, mouse, spleen, po, 25 mg/kg/day, spleen; day 14, multiple PO doses 25 mg/kg/day; read-out: AUC0–24h
testReadout: AUC(0-t) (µg·h/mL)
Quick reminder: number only, in µg·h/mL, skip the unit.

Identify measured AUC(0-t) associated with `N=c1c2c(-c3ccccc3)c(-c3ccccc3)n(Cc3ccccc3)c2ncn1[C@H]1CC[C@H](O)CC1`
959

====

- experimentSummary: Pharmacokinetics in tumor-bearing KPC mice after 25 mg/kg single or multiple dose oral gavage
- Type: in vivo
- measurementConditions: KPC, mouse; spleen; single PO dose 25 mg/kg
testReadout: AUC(0-inf) (µg·h/mL)
Quick reminder: number only, in µg·h/mL, skip the unit.

Identify measured AUC(0-inf) associated with `N=c1c2c(-c3ccccc3)c(-c3ccccc3)n(Cc3ccccc3)c2ncn1[C@H]1CC[C@H](O)CC1`
495
